MEASURED_ON: HLA-DR DRB4*0101 (DR53) (Homo sapiens, UniProt P01903+P13762, G164S)
ASSAY: biochemical
Type: binding
EXPERIMENTAL_PARAMETERS: DRB4 *0101
RECORDED_METRIC: log10 of IC50 (log10 of the value in nM)
Field: value | Transform: log10 | Quantity: IC50 | Unit: nM

# annotated cases, reported log10 of IC50 shown
| SUBSTANCE_SMILES | NUMERIC_VALUE |
| --- | --- |
| CC[C@H](C)[C@H](NC(=O)[C@@H](N)CC(C)C)C(=O)N[C@@H](CCSC)C(=O)N[C@@H](Cc1ccc(O)cc1)C(=O)N[C@@H](CO)C(=O)N[C@@H](C)C(=O)N[C@@H](Cc1c[nH]cn1)C(=O)N[C@@H](CC(=O)O)C(=O)N[C@H](C(=O)N[C@H](C(=O)N[C@H](C(=O)N[C@@H](CO)C(=O)NCC(=O)N[C@@H](CC(C)C)C(=O)N[C@@H](CCC(N)=O)C(=O)O)C(C)C)[C@@H](C)O)[C@@H](C)O | 3.64 |
| CC[C@H](C)[C@H](NC(=O)[C@H](CCCNC(=N)N)NC(=O)[C@@H](N)[C@@H](C)O)C(=O)N[C@@H](Cc1ccc(O)cc1)C(=O)N[C@@H](CC(N)=O)C(=O)N[C@H](C(=O)N[C@H](C(=O)NCC(=O)N[C@H](C(=O)N[C@@H](CC(C)C)C(=O)N[C@@H](CCCNC(=N)N)C(=O)NCC(=O)N[C@@H](C)C(=O)N[C@H](C(=O)N[C@@H](CCC(=O)O)C(=O)O)C(C)C)[C@@H](C)O)[C@@H](C)CC)C(C)C | 2.65 |
| CC[C@H](C)[C@H](NC(=O)[C@@H]1CCCN1C(=O)[C@H](CC(N)=O)NC(=O)[C@@H](N)Cc1c[nH]c2ccccc12)C(=O)N[C@@H](CC(C)C)C(=O)N[C@@H](CC(C)C)C(=O)N[C@@H](Cc1c[nH]c2ccccc12)C(=O)N[C@@H](CCC(N)=O)C(=O)N1CCC[C@H]1C(=O)N[C@H](C(=O)N1CCC[C@H]1C(=O)N[C@H](C(=O)N[C@@H](Cc1c[nH]cn1)C(=O)N[C@H](C(=O)N[C@H](C(=O)O)C(C)C)[C@@H](C)O)C(C)C)[C@@H](C)CC | 1.91 |
| CC[C@H](C)[C@H](NC(=O)[C@@H]1CCCN1C(=O)[C@H](CCC(N)=O)NC(=O)[C@@H](N)Cc1c[nH]c2ccccc12)C(=O)N1CCC[C@H]1C(=O)N[C@H](C(=O)N[C@@H](Cc1c[nH]cn1)C(=O)N[C@H](C(=O)N[C@H](C(=O)N1CCC[C@H]1C(=O)N[C@@H](CC(C)C)C(=O)N[C@@H](CO)C(=O)N[C@@H](CCC(=O)O)C(=O)N[C@@H](CC(=O)O)C(=O)N[C@@H](CCC(N)=O)C(=O)O)C(C)C)[C@@H](C)O)C(C)C | 3.09 |

INPUT: Entry `CC(C)C[C@H](NC(=O)[C@H](CCC(=O)O)NC(=O)[C@H](CCCCN)NC(=O)[C@H](C)N)C(=O)N[C@@H](CCCCN)C(=O)N[C@@H](Cc1ccccc1)C(=O)N[C@H](C(=O)N[C@H](C(=O)N[C@@H](CC(C)C)C(=O)N[C@H](C(=O)N[C@@H](Cc1ccccc1)C(=O)N[C@@H](CCCNC(=N)N)C(=O)N[C@@H](Cc1c[nH]cn1)C(=O)NCC(=O)N[C@@H](CC(=O)O)C(=O)O)C(C)C)[C@@H](C)O)C(C)C` , system HLA-DR DRB4*0101 (DR53) (Homo sapiens, UniProt P01903+P13762, G164S): what log10 of IC50 was measured?
OUTPUT: 1.71
